Here the recorded inhibition is given for each entry.
# System tested: Ephrin type-A receptor 4 (Homo sapiens);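 further: mean inhibition of EPHA4 from the GSK PKIS screening set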
# Experimental parameters: at 0.1 µM

# Compound structure string, inhibition / %
data = [
    ("O=S(=O)(CCNCc1ccc(-c2ccc3ncnc(Nc4ccc(OCc5cccc(F)c5)c(Cl)c4)c3c2)o1)c1ccccc1", 5.63),
    ("CCn1c(-c2nonc2N)nc2cnc(Oc3cccc(NC(=O)c4ccc(N(C)C)cc4)c3)cc21", 4.68),
    ("CS(=O)(=O)CCNCc1ccc(-c2ccc3ncnc(Nc4ccc(OCc5ccccc5)c(C(F)(F)F)c4)c3c2)o1", 6.33),
    ("Nc1nc(-c2ccc(F)cc2)c(-c2ccc3ncccc3n2)s1", 9.7),
    ("c1cc(-c2cnn3nc(N4CCOCC4)ccc23)nc(NC2CC2)n1", 10.2),
    ("N#Cc1c(NC(=O)c2ccc(F)cc2)sc2c1CCCC2", 4.24),
    ("COc1ccc(-c2cc3c(N)ncnc3o2)cc1", -2.85),
    ("COc1cccc(-n2ncc3c(N/N=C/c4ccc(F)cc4)ncnc32)c1", 7.96),
    ("NS(=O)(=O)c1ccc(N/N=C2\\C(=O)Nc3ccc4ncccc4c32)cc1", 8.83),
    ("CCn1c(-c2nonc2N)nc2c(C#CC(C)(C)O)ncc(OC3CCNCC3)c21", 4.06),
    ("Nc1ncc(-c2cccc(S(N)(=O)=O)c2)c2scc(-c3ccc(F)c(Cl)c3)c12", 54.9),
    ("Cc1cccc2c1NC(=O)/C2=N\\Nc1ccc(S(N)(=O)=O)cc1", 6.06),
    ("FC(F)(F)c1cccc(-c2nn3ncccc3c2-c2ccnc(Nc3ccc4c(c3)OCCO4)n2)c1", 4.56),
    ("CCn1cc(-c2ccnc3[nH]ccc23)c(-c2cccc(NC(=O)Nc3ccc(OCc4ccccc4)cc3)c2)n1", 0.23),
    ("CC(C)(CO)CNC(=O)c1ccc2c(c1)/C(=N/Nc1ccc(S(N)(=O)=O)cc1)C(=O)N2", -0.06),
    ("CN(C)CCOc1ccc(-c2nc(-c3ccncc3)c(-c3ccc4c(c3)CC/C4=N\\O)[nH]2)cc1", 6.96),
    ("CNC(=O)c1cncc(/C=C/c2ccccc2Cl)c1", 3.99),
    ("COc1ccc(-c2cc(-c3c[nH]nc3-c3ccccn3)ccn2)cc1", 8.66),
    ("CN1CCC(n2cnc(-c3ccc(F)cc3)c2-c2ccnc(N)n2)CC1", 5.99),
    ("CCn1c(-c2nonc2N)nc2ccccc21", 7.78),
    ("Fc1ccc(-c2cc(-c3c[nH]nc3-c3ccccn3)ccn2)cc1", 11.9),
]
